target-or-test-system: recombinant human OX40 (Acro Biosystems, cat. no. OXO-H5224) (human) (UniProt P43489)
Sequence (P43489 29-216 limits assumed): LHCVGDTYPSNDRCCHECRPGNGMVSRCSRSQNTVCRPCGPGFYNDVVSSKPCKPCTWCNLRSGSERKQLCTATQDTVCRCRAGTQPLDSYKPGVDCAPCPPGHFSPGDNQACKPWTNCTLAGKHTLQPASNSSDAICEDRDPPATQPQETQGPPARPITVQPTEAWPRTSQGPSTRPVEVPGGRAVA
test-name: BLI cross-block; competitor (immobilized 1st Ab): IgG1-CD134-INCAGN1949
measurement-name: corrected association response (nm)
Dear colleague, please return just the value in nm, with no unit written.

{"columns": ["binder", "corrected association response [nm]"],
 "data": [
  ["IgG1-CD134-MEDI0562 (antibody, INN chains, looked up, V domains shown, IgG1) VH: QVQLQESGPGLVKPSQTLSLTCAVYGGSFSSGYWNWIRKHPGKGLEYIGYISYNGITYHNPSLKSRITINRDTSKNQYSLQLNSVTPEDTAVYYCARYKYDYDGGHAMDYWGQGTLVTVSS VL: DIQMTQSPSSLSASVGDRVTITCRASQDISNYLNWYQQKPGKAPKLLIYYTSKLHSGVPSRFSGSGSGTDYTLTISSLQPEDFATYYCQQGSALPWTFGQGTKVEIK", 0],
  ["IgG1-CD134-RG7888 (antibody, INN chains, looked up, V domains shown, IgG1) VH: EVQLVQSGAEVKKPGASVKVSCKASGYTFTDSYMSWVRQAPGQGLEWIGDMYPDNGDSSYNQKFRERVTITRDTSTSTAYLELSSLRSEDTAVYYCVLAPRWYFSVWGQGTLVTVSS VL: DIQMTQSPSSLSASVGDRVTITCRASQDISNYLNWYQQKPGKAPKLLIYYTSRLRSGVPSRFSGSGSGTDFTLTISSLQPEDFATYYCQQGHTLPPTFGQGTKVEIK", 0.02]
]}

Exercise: // query corrected association response value for entry IgG1-CD134-ABBV368 (antibody, INN chains, looked up, V domains shown, IgG1) VH: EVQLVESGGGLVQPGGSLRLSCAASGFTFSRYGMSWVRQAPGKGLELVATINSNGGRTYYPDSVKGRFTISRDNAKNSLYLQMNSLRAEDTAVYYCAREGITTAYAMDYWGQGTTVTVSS VL: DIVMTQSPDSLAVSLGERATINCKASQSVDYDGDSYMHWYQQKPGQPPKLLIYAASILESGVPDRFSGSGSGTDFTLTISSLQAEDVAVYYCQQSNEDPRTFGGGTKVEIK
Solution: 0.01
